TARGET SYSTEM: Genome polyprotein (Dengue virus type 2 (strain 16681-PDK53))
MEASUREMENT PROTOCOL: flavivirus cap methylation enzyme inhibition – biochemical, confirmation dose response, primary screen (AID 588689)
REPORTED CONDITIONS: Dengue-2 NS5 methyltransferase capping enzyme assay, at 25 µM, active compounds read high
Hit rate of the full screen: of about 340,000 compounds, about 1,000 (0.29%) were called active. A selection follows. Results with a measured potency or affinity are listed apart.
METRIC NAME: inhibition (%)
Just the number in %, nothing appended.

>>> meas_value("CCc1noc(C)c1C(=O)NCCc1ccc(OC)c(OC)c1")
-2.74

--- query ---
Reported inhibition for `C#CCN(C[C@H]1[C@H](OC(=O)Nc2cccs2)[C@H](OC(=O)Nc2cccs2)C[C@H]2C(=O)N(c3ccccc3)C(=O)[C@@H]12)S(=O)(=O)c1ccc(C)cc1` : what is it?
2.32
